Test system: HCT 116 (p21 wt)
Assay: MTS cytotoxicity, HCT 116 (p21 wt)
Format: cell-based
Settings: Homo sapiens, log of EC50 in μM, 48 h, read-out: Log EC50 +/− Standard Error of Log EC50, HCT 116 (p21 wt) (converted)
Description: Cytotoxicity in Human Colon Tumor (HCT) Cell Lines. To determine if punaglandins elicit cytotoxicity independently of the tumor-suppressor p53, as do other dienone prostaglandins, several cytotoxicity assays were employed. […] Each cell line was seeded simultaneously in 96-well plates and incubated for 24 h before treatment with individual punaglandins at various concentrations for 48 additional h. Cytotoxicity was determined using MTS and absorbances were recorded at 490 nm. […]
Measured EC50 of individual entries
Kindly provide the numeric value in µM only, without the unit symbol.

Would you mind telling me what EC50 value was observed for CCCCC/C=C\C[C@@]1(O)C=C(Cl)C(=O)[C@@H]1[C@@H](OC(C)=O)[C@H](OC(C)=O)[C@H](CCCC(=O)OC)OC(C)=O [PNG 2] ? 0.0468

So what's the measured EC50 for this one? CCCCC/C=C\C[C@@]1(O)C=C(Cl)C(=O)/C1=C/[C@H](OC(C)=O)[C@H](CCCC(=O)OC)OC(C)=O [PNG 4] 0.339

Entry CC/C=C\C/C=C\C[C@@]1(O)C=C(Cl)C(=O)/C1=C/[C@H](OC(C)=O)[C@H](CCCC(=O)OC)OC(C)=O [PNG 3] : reported EC50 = ? 0.288

Endpoint output: EC50 of CCCCC/C=C\C[C@@]1(O)C=C(Cl)C(=O)/C1=C\[C@H](OC(C)=O)[C@H](CCCC(=O)OC)OC(C)=O [Z-PNG 4] . Value? 0.0295

* * *

system: HCT 116 −/− cells; assay: MTT cell viability assay, HCT 116 p53 −/− cells; details: read-out: Cytotoxic Potency (EC50) HCT −/−; 48 h, MTT
measured-endpoint: pEC50
Please report pEC50 as the negative decimal logarithm of the molar concentration, giving only the number.

pEC50 lookup needed for C=C1C(=O)C2=CC1CCC(=O)C1(C)CCC(OC(C)=O)C(C)(C)C1CC2O (centres unmarked) [NSC-302979, shikoccin] , thanks. 5.49

* * *

system: RKO cells; test: MTT cell viability assay, RKO cells; details: read-out: Cytotoxic Potency (EC50) RKO; 48 h, MTT
measured-endpoint: EC50

Please look up its EC50: CC1=CC(=O)C2=C(C)CCC3C(C)C(=O)OC3C12 (stereo not shown) > 60 µM

* * *

Each entry below carries its reported pEC50.
system: HCT 116 −/− cells; assay: MTT cell viability assay, HCT 116 p53 −/− cells; conditions: Homo sapiens, HCT-116, 48 h, read-out: Cytotoxic Potency (EC50) HCT −/−
FYI, pEC50 means -log10 of a concentration in mol per litre.

Worked examples follow.
molecule	target	result-value
CC(=O)O[C@H]1C(=O)[C@@]2(C)[C@H]([C@H](OC(=O)c3ccccc3)[C@]3(O)C[C@H](OC(=O)[C@H](O)[C@@H](NC(=O)c4ccccc4)c4ccccc4)C(C)=C1C3(C)C)[C@]1(OC(C)=O)CO[C@@H]1C[C@@H]2O	HCT 116 −/− cells	8.30
COc1cc([C@@H]2c3cc4c(cc3[C@@H](O[C@@H]3O[C@@H]5CO[C@@H](C)O[C@H]5[C@H](O)[C@H]3O)[C@H]3COC(=O)[C@H]23)OCO4)cc(OC)c1O [Etoposide, etoposide]	HCT 116 −/− cells	4.54
O=C(C=Cc1ccccc1)C=Cc1ccccc1	HCT 116 −/− cells	5.42

Below: the item to evaluate.
# lookup: pEC50 of COc1cc(/C=C/C(=O)CC(=O)/C=C/c2ccc(O)c(OC)c2)ccc1O 5.07
